Origin of measurements: patent US20030109523A1

SUBJECT_OF_TEST: αIIbβ3 integrin (Homo sapiens, UniProt P05106+P08514)
Construct: Human Platelets: Platelet-enriched plasma was obtained commercially from a donor pool; from tissue; host or cells: human platelet-rich plasma from a commercial donor pool
Sequence (P08514 32-887 limits assumed): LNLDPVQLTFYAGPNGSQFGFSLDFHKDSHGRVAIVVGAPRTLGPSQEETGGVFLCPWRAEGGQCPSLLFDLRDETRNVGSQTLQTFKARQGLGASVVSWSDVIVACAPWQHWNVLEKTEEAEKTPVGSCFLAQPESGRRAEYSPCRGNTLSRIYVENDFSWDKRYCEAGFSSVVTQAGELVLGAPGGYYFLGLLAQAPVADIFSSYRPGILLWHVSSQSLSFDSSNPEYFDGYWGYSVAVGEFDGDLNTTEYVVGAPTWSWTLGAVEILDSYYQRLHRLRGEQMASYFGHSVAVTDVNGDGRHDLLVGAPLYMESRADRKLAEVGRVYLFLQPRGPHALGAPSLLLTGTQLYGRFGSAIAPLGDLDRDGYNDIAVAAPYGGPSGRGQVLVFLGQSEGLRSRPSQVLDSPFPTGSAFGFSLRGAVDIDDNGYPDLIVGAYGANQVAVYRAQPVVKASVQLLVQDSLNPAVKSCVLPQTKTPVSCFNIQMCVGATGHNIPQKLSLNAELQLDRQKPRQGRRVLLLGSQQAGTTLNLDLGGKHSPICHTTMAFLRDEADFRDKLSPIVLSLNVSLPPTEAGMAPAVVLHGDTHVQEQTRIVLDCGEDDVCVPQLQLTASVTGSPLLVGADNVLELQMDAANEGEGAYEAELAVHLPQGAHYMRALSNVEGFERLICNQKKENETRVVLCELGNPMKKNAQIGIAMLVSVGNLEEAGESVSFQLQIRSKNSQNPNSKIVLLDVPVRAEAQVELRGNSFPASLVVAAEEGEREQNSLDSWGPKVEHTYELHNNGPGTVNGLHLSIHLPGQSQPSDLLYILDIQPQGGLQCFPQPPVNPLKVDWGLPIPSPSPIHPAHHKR
Sequence (P08514 891-1039 partner limits assumed): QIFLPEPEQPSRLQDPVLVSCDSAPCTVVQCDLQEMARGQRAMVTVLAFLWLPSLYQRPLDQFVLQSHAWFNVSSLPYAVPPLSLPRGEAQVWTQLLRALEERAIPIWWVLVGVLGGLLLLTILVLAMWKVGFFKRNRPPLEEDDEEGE
Sequence (P05106 27-788): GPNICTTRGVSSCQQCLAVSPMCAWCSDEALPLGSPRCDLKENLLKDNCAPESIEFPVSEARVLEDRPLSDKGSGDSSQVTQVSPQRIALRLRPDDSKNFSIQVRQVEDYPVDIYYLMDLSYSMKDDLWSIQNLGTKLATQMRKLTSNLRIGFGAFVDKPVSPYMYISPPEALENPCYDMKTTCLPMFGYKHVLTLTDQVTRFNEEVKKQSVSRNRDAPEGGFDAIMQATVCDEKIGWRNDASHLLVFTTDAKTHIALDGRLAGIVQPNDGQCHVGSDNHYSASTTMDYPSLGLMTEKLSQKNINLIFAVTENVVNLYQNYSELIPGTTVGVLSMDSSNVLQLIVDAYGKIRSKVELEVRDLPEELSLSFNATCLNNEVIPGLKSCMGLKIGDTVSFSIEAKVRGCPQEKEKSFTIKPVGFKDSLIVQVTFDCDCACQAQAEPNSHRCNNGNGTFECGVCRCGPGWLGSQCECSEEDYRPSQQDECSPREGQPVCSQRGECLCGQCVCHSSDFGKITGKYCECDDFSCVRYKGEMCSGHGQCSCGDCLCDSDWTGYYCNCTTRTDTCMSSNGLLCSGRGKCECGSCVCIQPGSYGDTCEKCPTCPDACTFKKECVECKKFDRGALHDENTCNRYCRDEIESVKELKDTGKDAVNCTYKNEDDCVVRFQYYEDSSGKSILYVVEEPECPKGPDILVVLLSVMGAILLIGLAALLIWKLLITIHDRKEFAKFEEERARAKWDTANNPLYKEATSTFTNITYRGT
EXPERIMENTAL_DETAILS: ADP-Induced Platelet Aggregation
Type: cell-based
CONDITION_NOTES: Table VII; @200 μM; percent of maximal aggregation
Counter-ions that a name gives are not always drawn.
READOUT_KIND: remaining activity at 200 µM (%)

Below, 4 compounds whose answers are already recorded.
| COMPOUND | remaining activity at 200 µM, % |
| --- | --- |
| N=C(N)NCCCOc1ccc2[nH]c(=O)c(CC(=O)O)cc2c1 [Example 237] | 96.5 |
| N=C(N)NCCOc1ccc2cc(CCC(=O)O)c(=O)[nH]c2c1.O=[N+]([O-])O [Example 247] | 100 |
| N=C(N)NCCCOc1ccc2c(c1)N(Cc1ccccc1)C(=O)C(CC(=O)O)C2 (stereo not drawn) [Example 172] | 71.5 |
| N=C(N)NCCCOc1cccc2c1NC(=O)C(CC(=O)O)C2 (stereo not drawn) [Example 234] | 74.3 |

I: N=C(N)NCCNC(=O)c1ccc2c(c1)NC(=O)C(CC(=O)O)C2 (stereo not drawn) [Example 200, Hydrochloride]
II: N=C(N)NCCCCOc1ccc2c(c1)CCCC(CC(=O)O)C2 (stereo not drawn) [Example 63, Trifluoroacetate]
Please indicate which item has the smaller measured remaining activity at 200 µM: I versus II Respond with the label that goes with your answer.
II

a: Cc1ccc(S(=O)(=O)NC(=O)CC2CCc3cc(OCCCNC4=NCCCN4)ccc3C2)cc1 (stereo not drawn) [Example 217, Trifluoroacetic Acid Salt]
b: O=C(O)CC1CCc2cc(OCCCNC3=NCCCN3)ccc2C1 (stereo not drawn) [Example 214]
Please indicate which item has the smaller measured remaining activity at 200 µM: a versus b Respond with the label that goes with your answer.
b
(b: 58%, a: 98%)

====

SUBJECT_OF_TEST: Vitronectin Receptor (αVβ3) (Homo sapiens, UniProt P05106+P06756)
Construct: expressed in transfected cells; host or cells: 512P5 cells (plasma membrane preparation)
Sequence (P06756 31-889 limits assumed): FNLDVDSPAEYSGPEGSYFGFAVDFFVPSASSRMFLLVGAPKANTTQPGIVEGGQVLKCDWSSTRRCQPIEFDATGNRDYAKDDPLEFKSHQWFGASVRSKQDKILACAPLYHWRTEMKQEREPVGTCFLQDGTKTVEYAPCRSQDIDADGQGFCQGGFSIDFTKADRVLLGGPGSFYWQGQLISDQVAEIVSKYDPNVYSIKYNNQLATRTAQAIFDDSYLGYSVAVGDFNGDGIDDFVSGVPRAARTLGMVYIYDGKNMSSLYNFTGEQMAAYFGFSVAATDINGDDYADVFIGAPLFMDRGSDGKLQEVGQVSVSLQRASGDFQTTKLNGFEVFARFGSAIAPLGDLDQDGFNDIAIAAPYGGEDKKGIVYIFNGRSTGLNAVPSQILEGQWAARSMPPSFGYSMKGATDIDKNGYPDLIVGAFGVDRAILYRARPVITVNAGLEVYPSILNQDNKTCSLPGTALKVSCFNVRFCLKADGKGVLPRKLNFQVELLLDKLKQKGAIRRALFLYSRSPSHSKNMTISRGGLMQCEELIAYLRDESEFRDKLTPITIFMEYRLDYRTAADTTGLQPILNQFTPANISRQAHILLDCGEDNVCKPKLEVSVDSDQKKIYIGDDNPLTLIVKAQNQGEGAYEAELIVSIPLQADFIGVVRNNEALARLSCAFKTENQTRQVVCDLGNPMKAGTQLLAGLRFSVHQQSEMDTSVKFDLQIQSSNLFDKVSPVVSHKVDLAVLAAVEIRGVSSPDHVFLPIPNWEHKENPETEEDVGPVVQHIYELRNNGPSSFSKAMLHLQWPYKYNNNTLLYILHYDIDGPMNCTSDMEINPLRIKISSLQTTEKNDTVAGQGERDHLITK
Sequence (P06756 891-1048 partner limits assumed): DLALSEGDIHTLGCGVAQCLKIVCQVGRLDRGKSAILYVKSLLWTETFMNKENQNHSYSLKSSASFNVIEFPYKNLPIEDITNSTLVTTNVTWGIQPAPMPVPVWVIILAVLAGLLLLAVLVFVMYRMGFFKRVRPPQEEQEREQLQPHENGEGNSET
Sequence (P05106 27-788): as the sequence (P05106 27-788) above
EXPERIMENTAL_DETAILS: Vitronectin Receptor (αVβ3) Binding Test Procedure
CONDITION_NOTES: @ 100 μM; % Max = percentage of the specific binding; read-out: (αVβ3) RECEPTOR BINDING, % @ concentration
Where a name gives a salt, the structure may show the parent alone.
READOUT_KIND: remaining activity at 100 µM (%)

| MOLECULE | remaining activity at 100 µM (%) |
| --- | --- |
| Cl.N=C(N)NCCC#Cc1ccc2c(c1)NC(=O)C(CC(=O)O)C2 (stereo not shown) [Example 100, Hydrochloride] | 30.9 |

I: O=C(O)CC1CCc2cc(OCCCNc3ncccn3)ccc2C1 (stereo not shown)
II: N=C(N)NCCNC(=O)c1ccc2c(c1)NC(=O)C(CC(=O)O)C2 (stereo not shown) [Example 200, Hydrochloride]
III: COC(=O)CC1CCc2cc(OCCCNc3ncccn3)ccc2C1 (stereo not shown)
Reorder: remaining activity at 100 µM, max to min. The reply should contain the labels ordered as requested.
III, I, II

====

SUBJECT_OF_TEST: αVβ3 integrin (Homo sapiens, UniProt P05106+P06756)
Construct: αVβ3-expressing cell lines are maintained by standard tissue culture techniques; endogenous in cells; host or cells: αVβ3-expressing cell lines
EXPERIMENTAL_DETAILS: Osteopontin-αVβ3 Cell Attachment Test Procedure
Assay type: cell-based
CONDITION_NOTES: @ 20 μM; % of maximal attachment; read-out: (αVβ3) CELL ATTACHMENT, % @ concentration
Structures can show the parent of a compound that is named as a salt.
READOUT_KIND: remaining activity at 20 µM (%)

| MOLECULE | SUBJECT_OF_TEST | remaining activity at 20 µM [%] |
| --- | --- | --- |
| N=C(N)NCCCOc1ccc2cc(CC(=O)O)c(=O)[nH]c2c1.O=C(O)C(F)(F)F [Example 186, Trifluoroacetate] | αVβ3 integrin (Homo sapiens, UniProt P05106+P06756) | 113 |
| CCn1c(=O)c(CC(=O)O)cc2ccc(OCCCNC(=N)N)cc21.O=C(O)C(F)(F)F [Example 149, Trifluoroacetate] | αVβ3 integrin (Homo sapiens, UniProt P05106+P06756) | 96.3 |
| N=C(N)NCCCCOc1ccc2c(c1)CC(CCC(=O)O)C(=O)N2 (stereo not drawn) | αVβ3 integrin (Homo sapiens, UniProt P05106+P06756) | 100 |
| Cl.N=C(N)NCCCCOc1ccc2cc(CC(=O)O)c(=O)[nH]c2c1 [Example 184, Hydrochloride] | αVβ3 integrin (Homo sapiens, UniProt P05106+P06756) | 108 |
| N=C(N)NCCOc1ccc2cc(CC(=O)O)c(=O)[nH]c2c1 | αVβ3 integrin (Homo sapiens, UniProt P05106+P06756) | 102 |
| N=C(N)NCCCOc1ccc2c(c1)CC(CCC(=O)O)C(=O)N2 (stereo not drawn) | αVβ3 integrin (Homo sapiens, UniProt P05106+P06756) | 104 |
| N=C(N)NCCCOc1ccc2cc(CC(=O)O)c(=O)n(Cc3ccccc3)c2c1.O=C(O)C(F)(F)F [Example 239, Trifluoroacetic Acid Salt] | αVβ3 integrin (Homo sapiens, UniProt P05106+P06756) | 99.7 |
| N=C(N)NCCCOc1ccc2[nH]c(=O)c(CC(=O)O)cc2c1 | αVβ3 integrin (Homo sapiens, UniProt P05106+P06756) | 86.2 |
| N=C(N)NCCCCOc1ccc2[nH]c(=O)c(CC(=O)O)cc2c1 [Example 238, Trifluoroacetic Acid Salt] | αVβ3 integrin (Homo sapiens, UniProt P05106+P06756) | 102 |

====

SUBJECT_OF_TEST: αVβ3 integrin (Homo sapiens, UniProt P05106+P06756)
Construct: αVβ3-expressing cell lines are maintained by standard tissue culture techniques; endogenous in cells; host or cells: αVβ3-expressing cell lines
EXPERIMENTAL_DETAILS: Osteopontin-αVβ3 Cell Attachment Test Procedure
Type: cell-based
CONDITION_NOTES: attachment of cells to osteopontin; read-out: (αVβ3) IC50 CELL ATTACHMENT
Structures can show the parent of a compound that is named as a salt.
READOUT_KIND: IC50 (µM)

| COMPOUND | SUBJECT_OF_TEST | ENDPOINT_VALUE |
| --- | --- | --- |
| N=C(N)NCCCCc1ccc2c(c1)NC(=O)C(CC(=O)O)C2.O=C(O)C(F)(F)F (stereo not shown) [Example 121, Trifluoroacetate] | αVβ3 integrin (Homo sapiens, UniProt P05106+P06756) | 15.1 |

A: N=C(N)NCCCC#Cc1ccc2c(c1)NC(=O)C(CC(=O)O)C2 (stereo not shown) [Example 101, Trifluoroacetate]
B: COC(=O)CC1CCc2cc(OCCCNC3=NCCCN3)ccc2C1 (stereo not shown) [Example 215, Bis(hydrochloride)]
API: POST /compare with A and B ; response names the item with higher IC50. Respond with the label that goes with your answer.
B

====

SUBJECT_OF_TEST: αIIbβ3 integrin (Homo sapiens, UniProt P05106+P08514)
Construct: Human Platelets: Platelet-enriched plasma was obtained commercially from a donor pool; from tissue; host or cells: human platelet-rich plasma from a commercial donor pool
EXPERIMENTAL_DETAILS: ADP-Induced Platelet Aggregation
Assay type: cell-based
CONDITION_NOTES: Table VII; ADP 20 uM, human platelets; read-out: Platelet Aggregation αIIbβ3 IC50
pIC50: −log10 of the molar value.
READOUT_KIND: pIC50

| COMPOUND | SUBJECT_OF_TEST | READOUT_KIND | ENDPOINT_VALUE |
| --- | --- | --- | --- |
| N=C(N)NCCCCOc1ccc2c(c1)NC(=O)C(CCC(=O)O)C2 (centres unmarked) | αIIbβ3 integrin (Homo sapiens, UniProt P05106+P08514) | pIC50 | 3.81 |
| N=C(N)NCCCOc1ccc2c(c1)CC(CC(=O)O)CC2.O=C(O)C(F)(F)F (centres unmarked) | αIIbβ3 integrin (Homo sapiens, UniProt P05106+P08514) | pIC50 | 3.83 |
| N=C(N)NCCCCCc1ccc2c(c1)NC(=O)C(CC(=O)O)C2.O=C(O)C(F)(F)F (centres unmarked) [Example 122, Trifluoroacetate] | αIIbβ3 integrin (Homo sapiens, UniProt P05106+P08514) | pIC50 | 4.24 |

P: CCOC(=O)CC1CCc2cc(OCCCNC(=N)N)ccc2C1 (centres unmarked)
Q: N=C(N)NCCCOc1ccc2c(c1)CC(CCC(=O)O)C(=O)N2 (centres unmarked)
Please indicate which item has the smaller measured pIC50: P versus Q Respond with the label that goes with your answer.
P
